Target: T1, Human B7-H4-Fc (Human B7H4 ECD, Fc_6His) (human)
T1 construct: also called FcHis6 tagged human B7-H4
T1 sequence (Q7Z7D3 whole entry, looked up): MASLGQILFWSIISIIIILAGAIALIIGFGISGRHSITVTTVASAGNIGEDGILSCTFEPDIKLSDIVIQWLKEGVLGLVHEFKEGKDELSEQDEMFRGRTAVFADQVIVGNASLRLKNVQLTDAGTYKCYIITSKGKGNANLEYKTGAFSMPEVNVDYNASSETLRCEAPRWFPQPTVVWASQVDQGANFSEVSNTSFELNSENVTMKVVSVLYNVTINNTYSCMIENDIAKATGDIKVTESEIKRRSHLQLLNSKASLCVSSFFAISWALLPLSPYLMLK
Assay: HTRF binding, murine IgG1
MEASUREMENT_NAME: EC50
Write the quantity with the unit trailing the number.

Notebook: ZY0EOB-F05 murine IgG1 (antibody, V domains shown) VH: QVQLQESGPGLVKPSQTLSLTCTVSDGSISSGGYYWSWIRQHPGKGLEWIGNIYYSGSTYYNPSLKSRVTISVDTSKNQFSLKLNSVTAADTAVYYCATEKALATVTPSGYENYYTVDVWGQGTTVTVSS VL: DIQLTQSPSFLSASVGDRVTITCWASQGISSYLAWYQQKPGKAPKLLIYAASTLQSGVPSRFSGSGSGTEFTLTISSLQPEDFATYYCQHLNSYPLTFGGGTKVEIK , EC50 read as 0.3 nM
